Tested on: E57 (patient-derived glioblastoma stem cells of mesenchymal subtype)
Test: phenotypic distance (Euclidean, principal components) from DMSO controls (arbitrary units); higher = stronger morphological change
Conditions: 4.1 nM; exposure time: 72 h
Where a name gives a salt, the structure may show the parent alone.
Quick reference: phenotypic distance of the listed items.

I'm curious: which phenotypic distance was measured for CN1C(=O)[C@@]23C[C@]4([C@]56C[C@@]78SS[C@@](CO)(C(=O)N7[C@H]5Nc5ccccc56)N(C)C8=O)c5ccccc5N[C@@H]4N2C(=O)[C@]1(CO)SS3 [Chaetocin] tested on E57?
2.84

I'm curious: which phenotypic distance was measured for COC(=O)Nc1nc2cc(C(=O)c3ccc(F)cc3)ccc2[nH]1 [Flubendazol] tested on E57?
0.67

I'm curious: which phenotypic distance was measured for Cc1ncc(CO)c(CO)c1O [Pyridoxine hydrochloride] tested on E57?
1.25

I'm curious: which phenotypic distance was measured for COc1cc(NS(C)(=O)=O)ccc1Nc1c2ccccc2nc2ccccc12 [Amsacrine] tested on E57?
0.741

I'm curious: which phenotypic distance was measured for CCN1CCN(C(=O)Cc2ccc(Nc3ncc(F)c(Nc4ccc(C(=O)Nc5ccccc5Cl)cc4)n3)cc2)CC1 [Aurora-A Inhibitor I] tested on E57?
0.556

I'm curious: which phenotypic distance was measured for CCOC(=O)OC(C)OC1=C(C(=O)Nc2ccccn2)N(C)S(=O)(=O)c2ccccc21 (stereo not given) [Ampiroxicam] tested on E57?
0.796

I'm curious: which phenotypic distance was measured for COc1cccc2c(NCc3ccccc3)nc(-n3c(N)nc4ccccc43)nc12 [ML240] tested on E57?
0.375

I'm curious: which phenotypic distance was measured for CC(NCCC(c1ccccc1)c1ccccc1)c1ccccc1 (stereo not given) [Fendiline hydrochloride] tested on E57?
0.595

I'm curious: which phenotypic distance was measured for CCc1c2c(nc3ccc(OC(=O)N4CCC(N5CCCCC5)CC4)cc13)-c1cc3c(c(=O)n1C2)COC(=O)[C@]3(O)CC [Irinotecan] tested on E57?
0.685

I'm curious: which phenotypic distance was measured for CC(C)C[C@H](NC(=O)[C@H](Cc1ccccc1)C[C@@H](O)[C@H](Cc1ccccc1)NC(=O)OC(C)(C)C)C(=O)N[C@@H](Cc1ccccc1)C(N)=O [L-685,458] tested on E57?
0.808

I'm curious: which phenotypic distance was measured for CC[C@@]1(O)C(=O)OCc2c1cc1n(c2=O)Cc2cc3cc(O)ccc3nc2-1 [Hydroxy Camptothecine] tested on E57?
6.51

I'm curious: which phenotypic distance was measured for CSc1ccc2c(c1)N(CCC1CCCCN1C)c1ccccc1S2 (stereo not given) [Thioridazine hydrochloride] tested on E57?
1.05

I'm curious: which phenotypic distance was measured for S=c1[nH]cnc2nc[nH]c12 [Mercaptopurine] tested on E57?
0.611

I'm curious: which phenotypic distance was measured for CC(=O)[C@]1(O)Cc2c(O)c3c(c(O)c2[C@@H](O[C@H]2C[C@H](N)[C@H](O)[C@H](C)O2)C1)C(=O)c1ccccc1C3=O [Idarubicin] tested on E57?
11.4

I'm curious: which phenotypic distance was measured for CCC(=O)OCC(=O)[C@@]1(OC(=O)CC)[C@H](C)C[C@H]2[C@H]3[C@H]([C@@H](O)C[C@@]21C)[C@@]1(C)C=CC(=O)C=C1C[C@H]3Cl [Alclometasone dipropionate] tested on E57?;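 further: cell Painting imaging in 384-well plates, CellProfiler features reduced to at least 20 principal components, Euclidean distance versus same-plate DMSO vehicle wells (0.1% v/v), median over six images per well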
1.91
